Numbers sourced from patent US20240067748A1.

test_system: T1, human Trop2 on cells (human, UniProt P09758 27-323)
T1 construct: whole, on cells; also called hTrop2; 293T-human Trop2 cells
T1 sequence (looked up): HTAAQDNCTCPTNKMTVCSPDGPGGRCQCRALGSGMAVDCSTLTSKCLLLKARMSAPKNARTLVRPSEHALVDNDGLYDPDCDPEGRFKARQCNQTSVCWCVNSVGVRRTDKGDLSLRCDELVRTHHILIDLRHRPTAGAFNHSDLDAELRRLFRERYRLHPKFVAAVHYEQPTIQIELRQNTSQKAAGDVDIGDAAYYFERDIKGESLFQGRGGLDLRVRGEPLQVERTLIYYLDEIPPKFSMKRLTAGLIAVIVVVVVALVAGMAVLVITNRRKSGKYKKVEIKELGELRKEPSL
experiment_summary: flow cytometry on BxPC-3 tumor cells

[
  {
    "binder": "PR001133 (antibody, human IgG1, kappa, V domains shown, fully human IgG1/kappa; also called antibody No. (5)) VH: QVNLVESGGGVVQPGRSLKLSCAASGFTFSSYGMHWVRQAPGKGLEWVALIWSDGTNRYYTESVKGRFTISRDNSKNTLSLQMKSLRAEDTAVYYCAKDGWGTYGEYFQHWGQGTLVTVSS VL: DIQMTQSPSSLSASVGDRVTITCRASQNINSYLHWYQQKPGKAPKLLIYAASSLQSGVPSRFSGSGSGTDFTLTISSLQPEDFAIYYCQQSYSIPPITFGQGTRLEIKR",
    "EC50": "2.07 nM"
  },
  {
    "binder": "PR001162 (antibody, human IgG1, kappa, V domains shown, fully human IgG1/kappa; also called antibody No. (23)) VH: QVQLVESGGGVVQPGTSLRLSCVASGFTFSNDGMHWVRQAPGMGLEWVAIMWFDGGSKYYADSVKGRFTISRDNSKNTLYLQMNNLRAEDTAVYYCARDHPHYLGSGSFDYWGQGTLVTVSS VL: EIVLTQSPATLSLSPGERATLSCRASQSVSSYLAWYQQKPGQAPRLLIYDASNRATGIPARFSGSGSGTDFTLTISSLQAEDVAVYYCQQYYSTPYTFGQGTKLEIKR",
    "EC50": "1.12 nM"
  },
  {
    "binder": "PR001128 (antibody, human IgG1, kappa, V domains shown, fully human IgG1/kappa; also called antibody No. (1)) VH: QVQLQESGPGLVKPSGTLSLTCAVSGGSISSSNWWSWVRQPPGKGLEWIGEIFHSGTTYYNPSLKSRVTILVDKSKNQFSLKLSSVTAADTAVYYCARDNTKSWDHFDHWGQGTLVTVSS VL: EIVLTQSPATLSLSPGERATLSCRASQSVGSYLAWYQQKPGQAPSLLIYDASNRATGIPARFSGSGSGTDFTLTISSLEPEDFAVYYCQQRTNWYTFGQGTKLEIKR",
    "EC50": "1.7 nM"
  },
  {
    "binder": "PR001166 (antibody, human IgG1, kappa, V domains shown, fully human IgG1/kappa; also called antibody No. (27)) VH: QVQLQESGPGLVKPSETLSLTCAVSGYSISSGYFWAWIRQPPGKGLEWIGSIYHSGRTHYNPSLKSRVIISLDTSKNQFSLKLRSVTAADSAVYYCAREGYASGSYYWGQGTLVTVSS VL: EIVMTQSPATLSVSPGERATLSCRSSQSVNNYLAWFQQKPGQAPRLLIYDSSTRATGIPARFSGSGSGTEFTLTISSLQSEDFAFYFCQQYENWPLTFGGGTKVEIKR",
    "EC50": "0.716 nM"
  },
  {
    "binder": "comparative example 2 antibody Tab (hRS7) (antibody, human IgG1, kappa, V domains shown, prepared on the basis of sacituzumab govitecan (ChemPartner, #T07-001); naked antibody) VH: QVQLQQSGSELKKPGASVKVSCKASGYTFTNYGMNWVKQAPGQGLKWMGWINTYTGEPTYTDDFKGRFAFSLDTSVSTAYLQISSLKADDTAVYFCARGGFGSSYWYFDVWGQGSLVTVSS VL: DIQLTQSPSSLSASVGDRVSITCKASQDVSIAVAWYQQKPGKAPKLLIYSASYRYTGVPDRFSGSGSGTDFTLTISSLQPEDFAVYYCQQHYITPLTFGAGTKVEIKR",
    "EC50": "2.08 nM"
  },
  {
    "binder": "PR001142 (antibody, human IgG1, kappa, V domains shown, fully human IgG1/kappa; also called antibody No. (9)) VH: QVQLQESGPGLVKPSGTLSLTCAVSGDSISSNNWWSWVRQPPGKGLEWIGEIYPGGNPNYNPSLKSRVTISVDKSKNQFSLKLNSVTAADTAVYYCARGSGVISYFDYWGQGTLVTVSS VL: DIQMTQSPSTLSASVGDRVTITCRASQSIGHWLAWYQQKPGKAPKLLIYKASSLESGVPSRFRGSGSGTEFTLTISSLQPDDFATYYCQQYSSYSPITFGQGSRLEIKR",
    "EC50": "1.15 nM"
  },
  {
    "binder": "PR001130 (antibody, human IgG1, kappa, V domains shown, fully human IgG1/kappa; also called antibody No. (2)) VH: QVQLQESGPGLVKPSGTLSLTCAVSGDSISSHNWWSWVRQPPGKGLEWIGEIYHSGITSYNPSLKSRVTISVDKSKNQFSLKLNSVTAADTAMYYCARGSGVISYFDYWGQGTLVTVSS VL: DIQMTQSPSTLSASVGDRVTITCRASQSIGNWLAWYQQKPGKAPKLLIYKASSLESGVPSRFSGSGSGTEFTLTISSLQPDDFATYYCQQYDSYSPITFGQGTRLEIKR",
    "EC50": "3.85 nM"
  }
]
